Assay: A CellTox Green Cytotoxicity Assay to monitor cytotoxicity in HEK293 cells - 8 hour (AID 1224884); further: nearly all actives have a fitted effect of over 35% in size
Settings: CellTox Green fluorescence; series mostly up to 76.8 µM
Inconclusive results are not listed. Calls of active or inactive are those of the source. The call rests on the fitted dose curve; in most records, active means well fitted activation curve with a large enough effect in the repeat runs; inconclusive means weak or mixed curves; inactive means flat fitted curve, though single readings scatter.
Measurement name: outcome

O=C1CCCCCN1 :: inactive
NC(=O)N1c2ccccc2C=Cc2ccccc21 :: inactive
COCCOCCOC :: inactive
O=C(O)Cc1cccc2ccccc12 :: inactive
C#C[C@]1(O)CC[C@H]2[C@@H]3CCC4=CC(=O)CC[C@@H]4[C@H]3CC[C@@]21CC :: inactive
C[C@]12CC[C@@H]3c4ccc(O)cc4C[C@@H](CCCCCCCCCS(=O)CCCC(F)(F)C(F)(F)F)[C@H]3[C@@H]1CC[C@@H]2O (stereo partly drawn) :: inactive
C#C[C@]1(O)CC[C@H]2[C@@H]3CCc4cc(O)ccc4[C@H]3CC[C@@]21C :: inactive
COc1ccc(C(=O)c2ccccc2)c(O)c1 :: inactive
CC(C)CC(C)CC(O)CC(C)C (stereo not drawn) :: inactive
CCCCC/C(C=O)=C\c1ccccc1 :: inactive
O=c1c(-c2ccc(O)cc2)coc2cc(O)cc(O)c12 :: inactive
OC[C@@H](O)[C@@H](O)[C@H](O)[C@H](O)CO :: inactive
OCCCc1ccccc1 :: inactive
